measured-target: BAX (Homo sapiens)
Sequence (Q07812 whole entry): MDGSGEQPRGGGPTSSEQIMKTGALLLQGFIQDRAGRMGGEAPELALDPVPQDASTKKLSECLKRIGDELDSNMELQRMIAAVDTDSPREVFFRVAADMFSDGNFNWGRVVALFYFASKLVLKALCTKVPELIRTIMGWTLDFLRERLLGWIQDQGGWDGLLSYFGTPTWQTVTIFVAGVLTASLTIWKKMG
assay-remarks: SMAC mCherry assay in permeabilized Bax-/- Bak-/- BMK cells with recombinant Bax and cBid
test-context: 20 nM Bax, 0.5 nM cBid, 60-80 minutes; read-out: SMAC mCherry I.D IC50
observation-type: IC50

query: Determine from records and report IC50 for O=C(CCCN1CCCCC1)Nc1ccc2ccnc(Nc3cc(Cl)c(Cl)cc3F)c2c1
result: 0.1 to 10 µM

query: State its IC50: Cc1cc2ccnc(Nc3ccc(F)c(Cl)c3)c2cc1NC(=O)CCCN1CCCCC1
result: 11 to 50 µM

query: Recall and state the measured IC50 for CCc1cc(Nc2nccc3cc(OC)c(NC(=O)CCCN4CCCCC4)cc23)ccc1F .
result: 11 to 50 µM

query: Provide only the value of recorded IC50 for COc1ccc(Nc2nccc3cc(OC)c(NC(=O)CCCN4CCCCC4)cc23)cc1Cl
result: 11 to 50 µM

query: Could you please provide reported IC50 for O=C(CCCN1CCCCC1)Nc1ccc2ccnc(Nc3cc(Cl)c(F)c(Cl)c3)c2c1 ? Thanks!
result: 0.1 to 10 µM

query: Answer with reported IC50 of COc1cc2ccnc(Nc3cc(F)cc(Cl)c3)c2cc1NC(=O)CCCN1CCCCC1
result: 0.1 to 10 µM

query: Answer with the recorded IC50 for the molecule listed here: O=C(CCCN1CCCCC1)Nc1ccc2ccnc(Nc3cccc(Cl)c3F)c2c1
result: 0.1 to 10 µM

The reported numbers originate from patent US20250154140A1.
